Source of measurements: the supplement of paper PMC10567573

Parameter: protein stability index. Scope: all listed entries.
B1: PLAGL1 (parent)
chain: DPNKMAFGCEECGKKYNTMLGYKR

Variants of: B1
Test: protein stability index of a GFP-peptide fusion (GPS, HEK-293T) (PSI 1-6); higher = more stable;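 also: lentivirally expressed fusions sorted by FACS into six bins by GFP to DsRed ratio, PSI derived from sequencing read proportions per bin multiplied by bin number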
Conditions: c terminus: a fixed tail appended
metric: protein stability index

[
  {
    "monomer_sequence": "DPNKMAFGCEECYKKYNTMLGYKR [G13Y]",
    "metric": "protein stability index",
    "assay_value": 2.32
  },
  {
    "monomer_sequence": "DPNKMAFGCEECGKKYNTYLGYKR [M19Y]",
    "metric": "protein stability index",
    "assay_value": 2.49
  },
  {
    "monomer_sequence": "DPNKMAFGCEEQGKKYNTMLGYKR [C12Q]",
    "metric": "protein stability index",
    "assay_value": 4.24
  },
  {
    "monomer_sequence": "DPNKMAFGCLECGKKYNTMLGYKR [E10L]",
    "metric": "protein stability index",
    "assay_value": 1.92
  },
  {
    "monomer_sequence": "DPNKMAFSCEECGKKYNTMLGYKR [G8S]",
    "metric": "protein stability index",
    "assay_value": 2.19
  },
  {
    "monomer_sequence": "DPNKMAFGCEECGKYYNTMLGYKR [K15Y]",
    "metric": "protein stability index",
    "assay_value": 1.71
  },
  {
    "monomer_sequence": "DPNKMAFGCMECGKKYNTMLGYKR [E10M]",
    "metric": "protein stability index",
    "assay_value": 1.96
  },
  {
    "monomer_sequence": "DPNKMAFGCEECGKKYNAMLGYKR [T18A]",
    "metric": "protein stability index",
    "assay_value": 3.2
  },
  {
    "monomer_sequence": "DPNKMADGCEECGKKYNTMLGYKR [F7D]",
    "metric": "protein stability index",
    "assay_value": 2.59
  },
  {
    "monomer_sequence": "DPNKMAFGCEECGKKYNTMAGYKR [L20A]",
    "metric": "protein stability index",
    "assay_value": 2.23
  },
  {
    "monomer_sequence": "DPNKMAFGCEECGKKYNTMLGYKW [R24W]",
    "metric": "protein stability index",
    "assay_value": 1.86
  },
  {
    "monomer_sequence": "DPNKMACGCEECGKKYNTMLGYKR [F7C]",
    "metric": "protein stability index",
    "assay_value": 2.22
  },
  {
    "monomer_sequence": "QPNKMAFGCEECGKKYNTMLGYKR [D1Q]",
    "metric": "protein stability index",
    "assay_value": 2.05
  },
  {
    "monomer_sequence": "DPNKMAFGCEECGKKYNMMLGYKR [T18M]",
    "metric": "protein stability index",
    "assay_value": 2.18
  },
  {
    "monomer_sequence": "DPNKMASGCEECGKKYNTMLGYKR [F7S]",
    "metric": "protein stability index",
    "assay_value": 3.43
  },
  {
    "monomer_sequence": "DPNKMAFGCEECGKKYNTMLGYNR [K23N]",
    "metric": "protein stability index",
    "assay_value": 2.42
  },
  {
    "monomer_sequence": "DPNKMAFGCEECGKKRNTMLGYKR [Y16R]",
    "metric": "protein stability index",
    "assay_value": 3.4
  },
  {
    "monomer_sequence": "DPNKMAFGCEECGKKYNTMLGYLR [K23L]",
    "metric": "protein stability index",
    "assay_value": 2.73
  },
  {
    "monomer_sequence": "DPNKMAFGCEEFGKKYNTMLGYKR [C12F]",
    "metric": "protein stability index",
    "assay_value": 3.44
  },
  {
    "monomer_sequence": "DPNKMAFGCEECGKVYNTMLGYKR [K15V]",
    "metric": "protein stability index",
    "assay_value": 2.27
  },
  {
    "monomer_sequence": "DPNKMAFGCEECGKKYNTQLGYKR [M19Q]",
    "metric": "protein stability index",
    "assay_value": 2.94
  },
  {
    "monomer_sequence": "DPVKMAFGCEECGKKYNTMLGYKR [N3V]",
    "metric": "protein stability index",
    "assay_value": 2.69
  },
  {
    "monomer_sequence": "DPNKMAFGCEECGKKYNKMLGYKR [T18K]",
    "metric": "protein stability index",
    "assay_value": 3.01
  },
  {
    "monomer_sequence": "DPNKMATGCEECGKKYNTMLGYKR [F7T]",
    "metric": "protein stability index",
    "assay_value": 2.3
  },
  {
    "monomer_sequence": "DPNKMAIGCEECGKKYNTMLGYKR [F7I]",
    "metric": "protein stability index",
    "assay_value": 2.98
  },
  {
    "monomer_sequence": "DPNKMAFGCEECGKKYNEMLGYKR [T18E]",
    "metric": "protein stability index",
    "assay_value": 2.77
  },
  {
    "monomer_sequence": "DPNKMAFGCEECWKKYNTMLGYKR [G13W]",
    "metric": "protein stability index",
    "assay_value": 3.27
  },
  {
    "monomer_sequence": "DPNKEAFGCEECGKKYNTMLGYKR [M5E]",
    "metric": "protein stability index",
    "assay_value": 3.31
  },
  {
    "monomer_sequence": "DPNKMAFGCEECGKKYNTMLGYMR [K23M]",
    "metric": "protein stability index",
    "assay_value": 1.58
  },
  {
    "monomer_sequence": "DPNKMAFGCEECGKNYNTMLGYKR [K15N]",
    "metric": "protein stability index",
    "assay_value": 2.99
  },
  {
    "monomer_sequence": "DPNKMAFGCEECGKKYNTMNGYKR [L20N]",
    "metric": "protein stability index",
    "assay_value": 2.26
  },
  {
    "monomer_sequence": "RPNKMAFGCEECGKKYNTMLGYKR [D1R]",
    "metric": "protein stability index",
    "assay_value": 1.8
  },
  {
    "monomer_sequence": "DPNRMAFGCEECGKKYNTMLGYKR [K4R]",
    "metric": "protein stability index",
    "assay_value": 1.64
  },
  {
    "monomer_sequence": "DPNKMAFGCEEAGKKYNTMLGYKR [C12A]",
    "metric": "protein stability index",
    "assay_value": 4.36
  },
  {
    "monomer_sequence": "DPNKMAFGCEECGKKYNTMLGYKQ [R24Q]",
    "metric": "protein stability index",
    "assay_value": 3.34
  },
  {
    "monomer_sequence": "DPNKMAFGCEECGKKYNTMFGYKR [L20F]",
    "metric": "protein stability index",
    "assay_value": 2.18
  },
  {
    "monomer_sequence": "DPNKMAFGSEECGKKYNTMLGYKR [C9S]",
    "metric": "protein stability index",
    "assay_value": 4.08
  },
  {
    "monomer_sequence": "DPNKMAFGCEECGKKYNTMLGNKR [Y22N]",
    "metric": "protein stability index",
    "assay_value": 2.78
  },
  {
    "monomer_sequence": "DPNKMMFGCEECGKKYNTMLGYKR [A6M]",
    "metric": "protein stability index",
    "assay_value": 2.75
  },
  {
    "monomer_sequence": "DPNKMAFGCEECGFKYNTMLGYKR [K14F]",
    "metric": "protein stability index",
    "assay_value": 2.23
  },
  {
    "monomer_sequence": "DDNKMAFGCEECGKKYNTMLGYKR [P2D]",
    "metric": "protein stability index",
    "assay_value": 2.54
  },
  {
    "monomer_sequence": "DPNKMAFGCEECGKKYNTTLGYKR [M19T]",
    "metric": "protein stability index",
    "assay_value": 2.74
  },
  {
    "monomer_sequence": "APNKMAFGCEECGKKYNTMLGYKR [D1A]",
    "metric": "protein stability index",
    "assay_value": 1.94
  },
  {
    "monomer_sequence": "DPNKMAFGCEECGKKYMTMLGYKR [N17M]",
    "metric": "protein stability index",
    "assay_value": 1.75
  },
  {
    "monomer_sequence": "DPNKMAFGCEECGKKYLTMLGYKR [N17L]",
    "metric": "protein stability index",
    "assay_value": 1.91
  },
  {
    "monomer_sequence": "DPNKMAFGCEECGKKYNTMLQYKR [G21Q]",
    "metric": "protein stability index",
    "assay_value": 2.48
  },
  {
    "monomer_sequence": "DPNKMAFGCEECGKKYNTMQGYKR [L20Q]",
    "metric": "protein stability index",
    "assay_value": 2.33
  },
  {
    "monomer_sequence": "DPNKMAFGCEECGRKYNTMLGYKR [K14R]",
    "metric": "protein stability index",
    "assay_value": 1.99
  },
  {
    "monomer_sequence": "DPQKMAFGCEECGKKYNTMLGYKR [N3Q]",
    "metric": "protein stability index",
    "assay_value": 3.51
  },
  {
    "monomer_sequence": "DPNKMAFGCEECGKKYNTMLGYKV [R24V]",
    "metric": "protein stability index",
    "assay_value": 2.52
  },
  {
    "monomer_sequence": "DPNKMAFGCEECGKTYNTMLGYKR [K15T]",
    "metric": "protein stability index",
    "assay_value": 2.58
  },
  {
    "monomer_sequence": "DPNKMAFGCEECRKKYNTMLGYKR [G13R]",
    "metric": "protein stability index",
    "assay_value": 2.53
  },
  {
    "monomer_sequence": "DPNKMAFGCEECGKKYNTMLSYKR [G21S]",
    "metric": "protein stability index",
    "assay_value": 2.87
  },
  {
    "monomer_sequence": "DPPKMAFGCEECGKKYNTMLGYKR [N3P]",
    "metric": "protein stability index",
    "assay_value": 2.26
  },
  {
    "monomer_sequence": "DPNKMAFGCEECGKKYNTMLDYKR [G21D]",
    "metric": "protein stability index",
    "assay_value": 3.13
  },
  {
    "monomer_sequence": "DPNKMAFGCEECGKKYNTMLGYKT [R24T]",
    "metric": "protein stability index",
    "assay_value": 2.93
  }
]
